- TARGET OR TEST SYSTEM: von Willebrand factor (VWF) (Homo sapiens)
- ASSAY PROTOCOL: filter
- APPLIED CONDITIONS: mAmCmGmAmAmCmUmGfCfCfCmUmC(6GLY)mGmAfCrGfCmAmCmAmGmAmCmGfUidT (6GLY = hexaethylene glycol linker); Bmax 60%; 2 mM CaCl2, 37 C

CHAIN SEQUENCE	Kd
ACGAACUGCCCUCGACGCACAGACGU [DTRI-009]	11 nM
